# Assayed Target: mouse ADAMTS7 (Mus musculus)
# Construct: Full-length mouse Adamts7 1-1857 (Uniprot Q68SA9, WT or E373Q catalytic mutant); expressed in transfected cells; host or cells: Human Coronary Artery Smooth Muscle Cells (HCA-SMC, Lonza), adenovirus 50 MOI
# Sequence (Q68SA9 221-1657): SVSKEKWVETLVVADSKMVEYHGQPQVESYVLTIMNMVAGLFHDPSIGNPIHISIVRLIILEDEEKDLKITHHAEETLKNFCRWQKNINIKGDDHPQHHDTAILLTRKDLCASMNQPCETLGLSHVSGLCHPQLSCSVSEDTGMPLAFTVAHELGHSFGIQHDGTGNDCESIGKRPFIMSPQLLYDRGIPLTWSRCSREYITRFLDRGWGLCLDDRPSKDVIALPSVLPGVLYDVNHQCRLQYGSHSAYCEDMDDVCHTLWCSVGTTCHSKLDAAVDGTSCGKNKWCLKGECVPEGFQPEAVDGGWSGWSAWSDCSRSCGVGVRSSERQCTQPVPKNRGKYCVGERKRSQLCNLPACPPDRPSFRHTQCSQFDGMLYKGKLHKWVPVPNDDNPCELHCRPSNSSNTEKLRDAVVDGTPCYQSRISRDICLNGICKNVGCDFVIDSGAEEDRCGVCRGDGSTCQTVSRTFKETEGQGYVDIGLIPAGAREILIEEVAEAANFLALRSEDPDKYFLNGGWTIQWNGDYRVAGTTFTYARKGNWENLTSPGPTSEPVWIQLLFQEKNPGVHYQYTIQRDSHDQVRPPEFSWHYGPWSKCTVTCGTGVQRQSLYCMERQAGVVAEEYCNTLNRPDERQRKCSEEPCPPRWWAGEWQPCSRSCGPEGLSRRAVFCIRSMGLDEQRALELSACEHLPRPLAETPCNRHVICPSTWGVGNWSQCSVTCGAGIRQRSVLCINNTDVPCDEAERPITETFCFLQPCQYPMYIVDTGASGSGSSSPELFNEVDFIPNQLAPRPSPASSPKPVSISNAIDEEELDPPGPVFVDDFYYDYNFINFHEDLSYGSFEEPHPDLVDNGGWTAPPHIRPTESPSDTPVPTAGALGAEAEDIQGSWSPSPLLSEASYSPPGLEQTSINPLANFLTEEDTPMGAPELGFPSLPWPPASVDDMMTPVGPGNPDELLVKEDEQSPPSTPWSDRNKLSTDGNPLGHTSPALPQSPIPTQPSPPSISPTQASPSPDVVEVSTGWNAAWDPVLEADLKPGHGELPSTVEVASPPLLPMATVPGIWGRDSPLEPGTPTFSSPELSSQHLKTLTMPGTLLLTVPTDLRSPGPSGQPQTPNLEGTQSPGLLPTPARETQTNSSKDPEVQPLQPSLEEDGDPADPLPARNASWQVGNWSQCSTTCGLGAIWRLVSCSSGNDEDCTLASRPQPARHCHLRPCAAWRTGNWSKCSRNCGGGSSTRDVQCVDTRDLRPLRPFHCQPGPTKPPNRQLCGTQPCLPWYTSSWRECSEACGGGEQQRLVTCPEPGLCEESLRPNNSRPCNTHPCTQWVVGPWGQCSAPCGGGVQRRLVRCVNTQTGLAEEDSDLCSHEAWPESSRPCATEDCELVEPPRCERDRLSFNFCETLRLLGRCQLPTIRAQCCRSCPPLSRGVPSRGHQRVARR
# Experimental Details: TMT10 TAILS N-terminomics, SMC1 experiment (Ad-mADAMTS7 WT vs EQ vs Luc, technical replicates, trypsin digest)
# Format: cell-based
# Stated Conditions: TAILS neo-N-terminal peptide abundance; log fold change, Ad-mADAMTS7 WT over Luc
# key: entry, value: logFC.mWT.over.Lux
Keep it simple and answer with nothing but the number.

Worked cases, answers included:
LOX_80 (ANASAQQPR; listed as Homo sapiens) :: 2.02
COL1A2_866 (LLGAPGILGLPGSR; listed as Homo sapiens) :: 3.48
FN1_2143 (FEEHGFR; listed as Homo sapiens) :: 1.11

Now consider a different substance.
Report logFC.mWT.over.Lux for POSTN_754 (IITGPEIKYTR; listed as Homo sapiens) please.
1.77

Origin of the recorded values: patent US20240368668A1
